Condition set: 333.15 K; 101.33 kPa; Liquid; Vibrating tube method
The following compounds are shown together with reported mass density values.

Compound: O=[N+]([O-])c1ccccc1 [nitrobenzene]
Unit abbreviation: kg/m3
mass density: 1163.45
--
Compound: CCCCN(CCCC)CCCC [tributylamine]
Unit abbreviation: kg/m3
mass density: 746.88
--
Compound: Cc1cccc(C)c1 [1,3-dimethylbenzene]
Unit abbreviation: kg/m3
mass density: 829.01
--
Compound: Cc1ccccc1 [toluene]
Unit abbreviation: kg/m3
mass density: 829.22
--
Compound: Cc1ccccc1C [1,2-dimethylbenzene]
Unit abbreviation: kg/m3
mass density: 845.2
--
Compound: Cc1ccc(C)cc1 [1,4-dimethylbenzene]
Unit abbreviation: kg/m3
mass density: 825.96
--
Compound: CCc1ccccc1 [ethylbenzene]
Unit abbreviation: kg/m3
mass density: 831.42

---

Method: refractive index (Na D-line) (dimensionless)
Condition set: 293.15 K; 101.33 kPa; Liquid; Standard Abbe refractometry
The following molecules are shown together with reported refractive index values.

Molecule: Cc1ccc(C)cc1 [1,4-dimethylbenzene]
refractive index: 1.4922
--
Molecule: Cc1ccccc1 [toluene]
refractive index: 1.493
--
Molecule: CCCCN(CCCC)CCCC [tributylamine]
refractive index: 1.4259
--
Molecule: CCc1ccccc1 [ethylbenzene]
refractive index: 1.4922
--
Molecule: Cc1ccccc1C [1,2-dimethylbenzene]
refractive index: 1.5015
--
Molecule: O=[N+]([O-])c1ccccc1 [nitrobenzene]
refractive index: 1.549
--
Molecule: Cc1cccc(C)c1 [1,3-dimethylbenzene]
refractive index: 1.4936

---

Condition set: 293.15 K; 101.33 kPa; Liquid; Vibrating tube method

Structure string: Cc1ccccc1
mass density (kg/m3): 866.89
--
Structure string: CCCCN(CCCC)CCCC
mass density (kg/m3): 776.91
--
Structure string: Cc1cccc(C)c1
mass density (kg/m3): 864.18
--
Structure string: O=[N+]([O-])c1ccccc1
mass density (kg/m3): 1203.13
--
Structure string: Cc1ccccc1C
mass density (kg/m3): 879.79
--
Structure string: Cc1ccc(C)cc1
mass density (kg/m3): 861.02
--
Structure string: CCc1ccccc1
mass density (kg/m3): 866.99

---

The following compounds are shown together with reported mass density values.
Condition set: 298.15 K; 101.33 kPa; Liquid; Vibrating tube method

Structure string: O=[N+]([O-])c1ccccc1
mass density / kg/m3: 1198.17
--
Structure string: Cc1ccccc1
mass density / kg/m3: 862.24
--
Structure string: CCCCN(CCCC)CCCC
mass density / kg/m3: 773.18
--
Structure string: Cc1ccccc1C
mass density / kg/m3: 875.58
--
Structure string: Cc1ccc(C)cc1
mass density / kg/m3: 856.68
--
Structure string: CCc1ccccc1
mass density / kg/m3: 862.59
--
Structure string: Cc1cccc(C)c1
mass density / kg/m3: 859.88
